Hello, the source for this data is ChEMBL document CHEMBL1139893, in case you need it.

Test system: Mus musculus
assaySummary: Antiinflammatory activity in ICR mouse assessed as inhibition of TPA-induced edema per ear applied topically 30 mins before TPA treatment
Type: functional
Cut-off 200 nmol on ID50: below means Met, at or above means Not met.

Q: Please state whether ID50 is below 200 nmol for C[C@@H]1O[C@@H](O[C@H]2[C@H](O[C@H]3CC[C@]4(C)[C@H]5CC=C6[C@@H]7CC(C)(C)CC[C@]7(C(=O)O[C@@H]7OC[C@H](O)[C@H](O)[C@H]7O[C@@H]7O[C@@H](C)[C@H](O[C@@H]8O[C@H](CO)[C@@H](O)[C@H](O)[C@H]8O)[C@@H](O)[C@H]7O)CC[C@@]6(C)[C@]5(C)CC[C@H]4C3(C)C)O[C@H](CO)[C@@H](O[C@@H]3OC[C@@H](O)[C@H](O)[C@H]3O)[C@@H]2O)[C@H](O)[C@H](O)[C@H]1O [HELIANTHOSIDE 1]
Ans: Met

Q: Please state whether ID50 is below 200 nmol for C[C@]12CCC(=O)C=C1CC[C@@H]1[C@@H]2[C@@H](O)C[C@@]2(C)[C@H]1CC[C@]2(O)C(=O)CO [HYDROCORTISONE]
Ans: Met

Q: Please state whether ID50 is below 200 nmol for C[C@@H]1O[C@@H](O[C@H]2CC[C@]3(C)[C@H]4CC=C5[C@@H]6CC(C)(C)CC[C@]6(C(=O)OC6OC[C@@H](O)[C@@H](O)[C@@H]6O[C@@H]6O[C@@H](C)[C@H](O[C@@H]7O[C@H](CO)[C@@H](O)[C@H](O)[C@H]7O)[C@@H](O)[C@H]6O)[C@H](O)C[C@@]5(C)[C@]4(C)CC[C@H]3C2(C)C)[C@H](O)[C@H](O)[C@H]1OC1OC[C@@H](O)[C@H](O)[C@H]1O (stereo partly drawn) [HELIANTHOSIDE B]
Ans: Met

Q: Please state whether ID50 is below 200 nmol for C[C@@H]1O[C@@H](O[C@@H]2[C@@H](O)[C@H](O[C@H]3CC[C@@]4(C)[C@@H](CC[C@]5(C)[C@@H]4CC=C4[C@@H]6CC(C)(C)CC[C@]6(C(=O)O[C@@H]6OC[C@@H](O)[C@H](O)[C@H]6O[C@@H]6O[C@@H](C)[C@H](O[C@@H]7O[C@H](CO)[C@@H](O)[C@H](O)[C@H]7O)[C@@H](O)[C@H]6O)[C@H](O)C[C@]45C)[C@]3(C)CO)O[C@H](CO)[C@H]2O[C@@H]2OC[C@@H](O)[C@H](O)[C@H]2O)[C@H](O)[C@H](O)[C@H]1O [HELIANTHOSIDE 4]
Ans: Not met

Q: Please state whether ID50 is below 200 nmol for C[C@@H]1O[C@@H](O[C@@H]2[C@@H](O)[C@H](O[C@H]3CC[C@]4(C)[C@H]5CC=C6[C@@H]7CC(C)(C)CC[C@]7(C(=O)O[C@@H]7OC[C@H](O)[C@H](O)[C@H]7O[C@@H]7O[C@@H](C)[C@H](O[C@@H]8O[C@H](CO)[C@@H](O)[C@H](O)[C@H]8O)[C@@H](O)[C@H]7O)[C@H](O)C[C@@]6(C)[C@]5(C)CC[C@H]4C3(C)C)O[C@H](CO)[C@H]2O[C@@H]2OC[C@@H](O)[C@H](O)[C@H]2O)[C@H](O)[C@H](O)[C@H]1O [HELIANTHOSIDE 2]
Ans: Met

Q: Please state whether ID50 is below 200 nmol for `COc1ccc2c(c1)c(CC(=O)O)c(C)n2C(=O)c1ccc(Cl)cc1`
Ans: Not met

Q: Please state whether ID50 is below 200 nmol for C[C@@H]1O[C@@H](O[C@@H]2[C@@H](O)[C@H](O[C@H]3CC[C@]4(C)[C@H]5CC=C6[C@@H]7CC(C)(C)CC[C@]7(C(=O)O[C@@H]7O[C@H](CO)[C@@H](O)[C@H](O)[C@H]7O[C@@H]7O[C@@H](C)[C@H](O)[C@@H](O)[C@H]7O)[C@H](O)C[C@@]6(C)[C@]5(C)CC[C@H]4C3(C)C)O[C@H](CO)[C@H]2O[C@@H]2OC[C@@H](O)[C@H](O)[C@H]2O)[C@H](O)[C@H](O)[C@H]1O [HELIANTHOSIDE 5]
Ans: Met

Q: Please state whether ID50 is below 200 nmol for C[C@@H]1O[C@@H](O[C@H]2[C@H](O[C@H]3CC[C@]4(C)[C@H]5CC=C6[C@@H]7CC(C)(C)CC[C@]7(C(=O)O[C@@H]7O[C@H](CO)[C@@H](O)[C@H](O)[C@H]7O[C@@H]7O[C@@H](C)[C@H](O[C@@H]8O[C@H](CO)[C@@H](O)[C@H](O)[C@H]8O)[C@@H](O)[C@H]7O)[C@H](O)C[C@@]6(C)[C@]5(C)CC[C@H]4C3(C)C)O[C@H](CO)[C@@H](O[C@@H]3OC[C@@H](O)[C@H](O)[C@H]3O)[C@@H]2O)[C@H](O)[C@H](O)[C@H]1O [HELIANTHOSIDE 3]
Ans: Met
